system: abc isoform of human TMEM16A channel expressed in CHO cells (Homo sapiens, UniProt Q5XXA6, DEL476-501)
test: Automated patch clamping (QPatch) assay to measure TMEM16A activity in whole-cell
test_conditions: CHO cells expressing human TMEM16A (abc), whole-cell automated patch clamp, Hill fit; read-out: TMEM16A QPATCH assay EC50 V3 EC50
pEC50: −log10 of the molar value. Structures can show the parent of a compound that is named as a salt.
measured_attribute: pEC50

INSERT INTO results (compound, measured_attribute, numeric_result) VALUES
  ('CCC(CC)NC(=O)c1cc(-c2cccc(-c3ncc(C(=O)NC(CC)C(C)C)o3)c2)[nH]n1 (stereo not drawn) [Example 1.11]', 'pEC50', 6.57),
  ('CCOC(=O)[C@H](NC(=O)c1cnc(-c2cccc(-c3cc(C(=O)NC(CC)CC)[nH]n3)c2)o1)C(C)C [Example 1.44]', 'pEC50', 6.29),
  ('CCC(CC)NC(=O)c1cc(-c2cccc(-c3ncc(C(=O)NCC4CCCCO4)o3)c2)[nH]n1 (stereo not drawn) [Example 1.18]', 'pEC50', 6.74);

I. CCC(CC)NC(=O)c1cnc(-c2cccc(-c3cc(C(=O)NC(C)C4CCC4)n[nH]3)c2)o1 (stereo not drawn) [Example 3.10]
II. CCC(CC)NC(=O)c1cnc(-c2cccc(-c3nc(C(=O)NC(CC)CC)n(CCN4CCCCC4)n3)c2)o1 [Example 15.0]
III. CCC(CC)NC(=O)c1cc(-c2cccc(-c3ncc(C(=O)N[C@H](C(=O)OC(C)(C)C)c4ccccc4)o3)c2)[nH]n1 [Example 1.37]
Query block: Order field: pEC50 | Direction: descending (largest first) Sort the labels as requested; that list is your answer.
Result block: I, III, II

A. CCOC(=O)[C@@H](NC(=O)c1cnc(-c2cccc(-c3cc(C(=O)NC(C4CC4)C4CC4)n(CCCO)n3)c2)o1)C(C)C [Example 4.5]
B. CCC(CC)NC(=O)c1cnc(-c2cccc(-c3cc(C(=O)N[C@@H](C)C4CC4)n[nH]3)c2)o1 [Example 3.25]
C. CCC(CC)NC(=O)c1cnc(-c2cccc(-c3cc(C(=O)N[C@@H](C)COC)n[nH]3)c2)o1 [Example 3.11]
Query block: List these items ordered by pEC50, big to small. Kindly provide the labels arranged according to the requested ordering.
Result block: B, A, C

a. CCC(CC)NC(=O)c1cnc(-c2cccc(-c3nnc(C(=O)NCC4CCCCC4)[nH]3)c2)o1 [Example 13.5]
b. CCC(CC)NC(=O)c1cnc(-c2cccc(-c3cc(C(=O)N[C@@H](C)C(=O)OCc4ccccc4)n[nH]3)c2)o1 [Example 3.64, Trifluoroacetate]
Query block: Of a and b , which carries the smaller reported pEC50 figure? Give the label under which the chosen entry appears.
Result block: b
(b: 6.82, a: 7.52)

----------
system: abc isoform of human TMEM16A channel expressed in CHO cells (Homo sapiens, UniProt Q5XXA6, DEL476-501)
test: Automated patch clamping (QPatch) assay to measure TMEM16A activity in whole-cell
test_conditions: CHO cells expressing human TMEM16A (abc), whole-cell automated patch clamp, Hill fit; read-out: TMEM16A QPATCH assay EC50 V3 EC50
Counter-ions that a name gives are not always drawn.
measured_attribute: EC50 (µM)

INSERT INTO assay_data (compound, units_text, numeric_result) VALUES
  ('CC(C)OC(=O)[C@@H](NC(=O)c1cnc(-c2cccc(-c3nnc(C(=O)N[C@@H](C)C4CC4)[nH]3)c2)o1)C(C)C [Example 12.12]', 'µM', 0.19);

a. CCC(CC)NC(=O)c1cnc(-c2cccc(-c3cc(C(=O)N[C@@H](COC(C)(C)C)C(=O)OC(C)(C)C)n[nH]3)c2)o1 [Example 3.61, Trifluoroacetate]
b. CCC(CC)NC(=O)c1cnc(-c2cccc(-c3cc(C(=O)N[C@H](C)C4CC4)[nH]n3)c2)o1 [Example 3.56]
Query block: Hi, I'm comparing two records. Which one has the lower EC50, a or b ? Output the label that corresponds to your choice.
Result block: b
(b: 0.09 µM, a: 0.13 µM)

----------
system: abc isoform of human TMEM16A channel expressed in CHO cells (Homo sapiens, UniProt Q5XXA6, DEL476-501)
Sequence (Q5XXA6 with tags, fused parts or gaps isoform Q5XXA6-5 DEL539-564): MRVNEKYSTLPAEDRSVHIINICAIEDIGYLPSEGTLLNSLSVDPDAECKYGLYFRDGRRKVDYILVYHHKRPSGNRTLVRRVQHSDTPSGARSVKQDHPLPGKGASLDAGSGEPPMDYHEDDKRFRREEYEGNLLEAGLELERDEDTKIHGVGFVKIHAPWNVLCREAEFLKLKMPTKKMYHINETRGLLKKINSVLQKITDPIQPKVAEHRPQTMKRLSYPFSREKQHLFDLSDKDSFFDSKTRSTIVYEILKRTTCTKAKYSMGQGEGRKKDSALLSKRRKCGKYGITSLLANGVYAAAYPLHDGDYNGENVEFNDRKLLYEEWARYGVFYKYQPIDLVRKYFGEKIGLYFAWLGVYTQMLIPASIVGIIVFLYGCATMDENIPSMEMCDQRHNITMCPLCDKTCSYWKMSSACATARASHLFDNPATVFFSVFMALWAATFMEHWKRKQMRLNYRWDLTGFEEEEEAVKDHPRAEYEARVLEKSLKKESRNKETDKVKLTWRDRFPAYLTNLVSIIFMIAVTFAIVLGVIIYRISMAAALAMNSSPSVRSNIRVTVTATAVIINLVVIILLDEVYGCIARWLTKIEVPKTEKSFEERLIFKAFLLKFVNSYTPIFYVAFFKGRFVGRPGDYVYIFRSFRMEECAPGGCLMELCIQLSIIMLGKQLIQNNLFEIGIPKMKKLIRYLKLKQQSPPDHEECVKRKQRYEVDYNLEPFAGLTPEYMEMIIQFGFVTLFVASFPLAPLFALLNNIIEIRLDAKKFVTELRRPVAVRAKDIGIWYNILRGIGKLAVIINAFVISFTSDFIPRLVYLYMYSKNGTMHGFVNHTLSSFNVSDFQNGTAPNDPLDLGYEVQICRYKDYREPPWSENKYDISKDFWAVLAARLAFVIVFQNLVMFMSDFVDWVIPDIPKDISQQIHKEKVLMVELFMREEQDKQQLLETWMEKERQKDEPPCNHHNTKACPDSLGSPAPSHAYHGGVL
test: Automated patch clamping (QPatch) assay to measure TMEM16A activity in whole-cell
test_conditions: CHO cells expressing human TMEM16A (abc), whole-cell automated patch clamp, Hill fit; read-out: TMEM16A QPATCH assay EC50 V3 EC50
measured_attribute: EC50 (nM)

Some solved entries appear below for comparison.
INSERT INTO assay_data (compound, units_text, numeric_result) VALUES
  ('CCOC(=O)[C@@H](NC(=O)c1cnc(-c2cccc(-c3nnc(C(=O)NC(C4CC4)C4CC4)[nH]3)c2)o1)C(C)C', 'nM', 20),
  ('CCOC(=O)C1(C)CCN(C(=O)c2cc(-c3cccc(-c4ncc(C(=O)NC(CC)CC)o4)c3)[nH]n2)C1 (stereo not shown)', 'nM', 450),
  ('CCCC(CCC)NC(=O)c1cnc(-c2cccc(-c3cc(C(=O)NC(CC)CC)n[nH]3)c2)o1', 'nM', 70),
  ('CCOC(=O)[C@@H](NC(=O)c1cc(-c2cccc(-c3ncc(C(=O)NC(C4CC4)C4CC4)o3)c2)nn1CC(C)(C)O)C(C)C', 'nM', 40),
  ('CCC(CC)NC(=O)c1cnc(-c2cccc(-c3nc(C(=O)NC(CC)CC)n(CCO)n3)c2)o1', 'nM', 130);

P. CCOC(=O)[C@@H](NC(=O)c1cnc(-c2cccc(-c3cc(C(=O)NC(CC)CC)n(CCN4CCOCC4)n3)c2)o1)C(C)C
Q. CCC(CC)NC(=O)c1cc(-c2cccc(-c3ncc(C(=O)NC4CCCC4)o3)c2)[nH]n1
Query block: // pick min by EC50: P , Q Choose, then provide that item's label.
Result block: P
(P: 310 nM, Q: 800 nM)

----------
system: abc isoform of human TMEM16A channel expressed in CHO cells (Homo sapiens, UniProt Q5XXA6, DEL476-501)
Sequence (Q5XXA6 with tags, fused parts or gaps isoform Q5XXA6-5 DEL539-564): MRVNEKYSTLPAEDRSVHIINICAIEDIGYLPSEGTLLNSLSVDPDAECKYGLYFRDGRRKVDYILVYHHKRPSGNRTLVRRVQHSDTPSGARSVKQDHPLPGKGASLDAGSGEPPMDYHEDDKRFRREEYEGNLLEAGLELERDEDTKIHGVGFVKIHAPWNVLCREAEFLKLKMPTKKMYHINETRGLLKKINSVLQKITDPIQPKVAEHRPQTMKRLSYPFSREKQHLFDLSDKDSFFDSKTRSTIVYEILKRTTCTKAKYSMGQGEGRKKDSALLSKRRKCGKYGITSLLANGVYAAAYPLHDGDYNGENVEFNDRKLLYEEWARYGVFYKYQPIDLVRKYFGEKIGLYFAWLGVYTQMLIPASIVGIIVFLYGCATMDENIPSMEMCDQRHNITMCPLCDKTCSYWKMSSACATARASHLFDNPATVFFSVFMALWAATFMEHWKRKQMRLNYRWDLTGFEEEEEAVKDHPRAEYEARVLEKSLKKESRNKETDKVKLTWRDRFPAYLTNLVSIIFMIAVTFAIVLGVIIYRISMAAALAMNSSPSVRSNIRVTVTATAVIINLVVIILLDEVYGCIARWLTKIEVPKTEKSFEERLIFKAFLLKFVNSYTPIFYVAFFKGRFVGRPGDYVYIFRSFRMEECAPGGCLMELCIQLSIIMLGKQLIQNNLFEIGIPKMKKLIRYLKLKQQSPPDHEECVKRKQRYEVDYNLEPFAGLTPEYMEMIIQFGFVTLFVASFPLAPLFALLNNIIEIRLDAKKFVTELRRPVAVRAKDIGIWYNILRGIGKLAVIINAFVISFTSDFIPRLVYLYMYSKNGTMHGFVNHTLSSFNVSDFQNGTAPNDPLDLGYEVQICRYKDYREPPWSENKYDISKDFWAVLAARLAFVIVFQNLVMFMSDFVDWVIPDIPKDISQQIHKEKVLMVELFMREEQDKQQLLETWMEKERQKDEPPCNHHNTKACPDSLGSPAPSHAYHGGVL
test: Automated patch clamping (QPatch) assay to measure TMEM16A activity in whole-cell
test_conditions: CHO cells expressing human TMEM16A (abc), whole-cell automated patch clamp, Hill fit; read-out: TMEM16A QPATCH assay EC50 V3 EC50
pEC50: −log10 of the molar value.
measured_attribute: pEC50

1. CCC(CC)NC(=O)c1cnc(-c2cccc(-c3nnc(C(=O)NC(CC)CC)n3CCOC)c2)o1
2. CCC(CC)NC(=O)c1cnc(-c2cccc(-c3cn(CC(O)C(F)(F)F)c(C(=O)N[C@@H](C)C4CC4)n3)c2)o1 (some centres unmarked)
3. CCC(CC)NC(=O)c1cc(-c2cccc(-c3ncc(C(=O)N[C@H](C(=O)OC)C(C)C)o3)c2)[nH]n1
4. CCC(CC)NC(=O)c1cnc(-c2cccc(-c3nc(C(=O)NC(CC)CC)n(CC(=O)OC(C)(C)C)n3)c2)o1
5. CCC(CC)NC(=O)c1cnc(-c2cccc(-c3cc(C(=O)N[C@@H](C)C4CC4)n(CC(C)O)n3)c2)o1 (some centres unmarked)
Query block: Please rank these compounds by pEC50 in descending order. // respond by listing labels in the order requested
Result block: 4, 3, 5, 1, 2
(4: 7.10, 3: 6.82, 5: 6.62, 1: 6.36, 2: 6.10)
